Listed here are compounds together with their documented pIC50.
Biological target: IDO1 (Homo sapiens)
Construct: endogenous in cells
Sequence (P14902 whole entry): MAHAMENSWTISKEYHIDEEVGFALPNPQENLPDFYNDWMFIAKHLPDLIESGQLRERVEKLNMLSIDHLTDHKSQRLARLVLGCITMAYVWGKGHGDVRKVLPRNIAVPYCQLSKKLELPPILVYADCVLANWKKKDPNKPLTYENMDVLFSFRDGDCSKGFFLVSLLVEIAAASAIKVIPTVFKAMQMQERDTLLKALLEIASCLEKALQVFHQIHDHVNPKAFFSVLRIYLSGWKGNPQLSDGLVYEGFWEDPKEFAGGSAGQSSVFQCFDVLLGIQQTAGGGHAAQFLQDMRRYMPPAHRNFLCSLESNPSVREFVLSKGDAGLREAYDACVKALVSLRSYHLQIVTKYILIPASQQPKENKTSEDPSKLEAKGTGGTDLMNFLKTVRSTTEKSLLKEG
Experiment: IDO1 cell-based assay (HeLa cells, IFNgamma-induced, N-formylkynurenine/L-tryptophan by RFMS)
Conditions: 10 ng/mL IFNgamma, 24 hours
pIC50: −log10 of the molar value.

Some compounds with known pIC50 results, for comparison:
1) CCC(NC(=O)c1ccc(Cl)cc1)[C@H]1[C@@H]2C[C@@H](NC(=O)c3ccccn3)C[C@@H]21 (stereo partly shown) | > 6.70
2) O=C(NC[C@@H]1[C@H]2C[C@H](n3cnc4cc(F)c(F)cc43)C[C@@H]12)c1cccc(F)c1 | 5.70 to 6.70
3) CC(NC(=O)c1ccc(Cl)cc1)[C@H]1[C@@H]2C[C@@H](Oc3ncnc4ccc(F)cc34)C[C@@H]21 (stereo partly shown) [Compound 64] | > 6.70
4) C=C(C)c1cn([C@@H]2C[C@@H]3[C@H](C2)[C@H]3C(CC)NC(=O)c2ccc(Cl)cc2)nn1 (stereo partly shown) [Compound 262] | > 6.70
5) CC[C@@H](NC(=O)c1ccc(Cl)cc1)[C@H]1[C@@H]2C[C@@H](c3cnn(C4CC4)c3)C[C@@H]21 | > 6.70
6) O=C(NC[C@@H]1[C@H]2CN(c3ncnc4ccc(F)cc34)C[C@@H]12)c1ccc(Cl)cc1 | 5.70 to 6.70

Now for another entry.
input: Look at this compound and give its reported pIC50. O=C(Cc1ccc(Cl)cc1)N[C@H]1[C@@H]2C[C@@H](n3ncc(=O)c4ccccc43)C[C@@H]21
output: < 5.30

Values from patent US11173145B2
